meta.source: ChEMBL document CHEMBL1127540

# targetDesc: Human immunodeficiency virus type 1 protease (Human immunodeficiency virus 1, UniProt Q72874)
Starred links: 1 amine or outer side, 2 acyl side, 3 side chain; linkers in the order of their positions; H or OH if unused. Non-standard residues stand in square brackets, D forms with d. Residues, ends and D or L forms follow the SMILES beside them. X3 = O=C([C@@H]1CCC[C@@H]1[C@H](O)[C@H](Cc1ccccc1)N[*:1])[*:2]; X5 = O=C([C@H]1CCCN1C[C@H](O)[C@H](Cc1ccccc1)N[*:1])[*:2]; X2 = CC(C)C[C@H](N[*:1])[C@@H](O)CN1CCC[C@@H]1C(=O)[*:2]; X8 = O=C([C@H]1CCCN1C[C@H](Cc1ccccc1)N[*:1])[*:2]; X7 = NC(=O)C[C@H](N[*:1])[C@@H](O)CC(=O)[*:2]; Sta = CC(C)C[C@H](N)[C@@H](O)CC(=O)O; Lac = C[C@H](O)C(=O)O
experimentalReadout: pKi
One number for each entry, as −log10 of the molar value.

// worked examples, pKi included
molecule	pKi
CC(=O)N[C@H](C(=O)C[C@@H](Cc1ccccc1)[C@H](O)[C@H](Cc1ccccc1)NC(=O)[C@@H](NC(C)=O)C(C)C)C(C)C	7.92
CC(C)(C)OC(=O)N[C@@H](Cc1ccccc1)[C@@H](O)CC(=O)N[C@@H](CCC(=O)O)C(=O)N[C@@H](Cc1ccccc1)C(=O)O	7.20
CC(C)[C@H](NC(=O)NCc1ccccn1)C(=O)N[C@@H](Cc1ccccc1)C(=O)C(F)(F)CCc1ccccc1	8.54
CC(C)C[C@H](NC(=O)[C@H](C)NC(=O)C[C@H](O)[C@H](CC(C)C)NC(=O)[C@@H](NC(=O)[C@@H](NC(=O)[C@H](C)O)C(C)C)C(C)C)[C@@H](O)CC(=O)O (H-[Lac]VV[Sta]A[Sta]-OH)	4.72
CC(C)[C@H](NC(=O)CNC(=O)OCc1ccccc1)C(=O)N[C@@H](Cc1ccccc1)C(=O)C(F)(F)CCc1ccccc1	9.00
CC[C@H](C)[C@H](NC(=O)C[C@H](O)[C@H](CC(N)=O)NC(=O)[C@H](CCC(N)=O)NC(=O)[C@H](CO)NC(=O)[C@@H](N)C(C)C)C(=O)N[C@H](C(=O)O)C(C)C (H-VSQ[X7]IV-OH)	5.43

The following molecules each have a reported value; give each one's pKi.
1. CC(=O)N[C@@H](CO)C(=O)N[C@@H](C)C(=O)N[C@@H](C)C(=O)N[C@@H](Cc1ccccc1)CN1CCC[C@@H]1C(=O)N[C@H](C(=O)N[C@H](C(N)=O)C(C)C)C(C)C (Ac-SAA[X8]VV-NH2)
2. COC(=O)[C@@H](NC(=O)[C@@H](NC(=O)[C@@H]1CCC[C@@H]1[C@H](O)[C@H](Cc1ccccc1)NC(=O)[C@H](C)NC(=O)[C@H](C)NC(=O)[C@@H](N)CO)C(C)C)C(C)C (H-SAA[X3]VV-OMe)
3. CC[C@H](C)[C@H](NC(=O)[C@H]1CCCN1C[C@H](O)[C@H](Cc1ccccc1)NC(=O)[C@H](CC(N)=O)NC(=O)[C@H](CC(C)C)NC(=O)[C@H](CO)NC(C)=O)C(=O)N[C@H](C(=O)OC)C(C)C (Ac-SLN[X5]IV-OMe)

[out]
[4.42, 6.30, 9.62]

Give pKi for all molecules that follow.
1. CC[C@H](C)[C@H](NC(=O)[C@H]1CCCN1C[C@H](O)[C@H](CC(C)C)NC(=O)[C@H](CC(N)=O)NC(=O)[C@H](CC(C)C)NC(C)=O)C(=O)N[C@H](C(=O)OC)C(C)C (Ac-LN[X2]IV-OMe)
2. CC(C)[C@H](NC(=O)OCc1ccccc1)C(=O)N[C@@H](Cc1ccccc1)[C@H](O)[C@H](O)[C@H](Cc1ccccc1)NC(=O)[C@@H](NC(=O)OCc1ccccc1)C(C)C
3. CC(C)(C)OC(=O)N[C@H](Cc1ccccc1)[C@@H](O)CC(=O)N[C@@H](CCC(=O)O)C(=O)N[C@@H](Cc1ccccc1)C(=O)O
4. CC[C@H](C)[C@H](NC(=O)OCc1ccccc1)C(=O)N[C@@H](Cc1ccccc1)[C@@H](O)[C@@H](CC(=O)[C@H](NC(=O)OCc1ccccc1)[C@@H](C)CC)Cc1ccccc1

[out]
1: 7.68; 2: 9.66; 3: 5.15; 4: 8.31

----------
# targetDesc: Human immunodeficiency virus type 1 protease (Human immunodeficiency virus 1, UniProt Q72874)
Starred links: 1 amine or outer side, 2 acyl side, 3 side chain; linkers in the order of their positions; H or OH if unused. Non-standard residues stand in square brackets, D forms with d. Residues, ends and D or L forms follow the SMILES beside them. X5 = O=C([C@H]1CCCN1C[C@H](O)[C@H](Cc1ccccc1)N[*:1])[*:2]
For each record, write down the corresponding Ki.
Numbers only, in nM.

compound	Ki (nM)
CC(=O)N[C@@H](CO)C(=O)N[C@@H](CCC(N)=O)C(=O)N[C@@H](CC(N)=O)C(=O)N[C@@H](Cc1ccccc1)CN1CCC[C@@H]1C(=O)N[C@H](C(=O)N[C@H](C(N)=O)C(C)C)C(C)C (stereo in doubt; 71)	14100

I need Ki for every entry listed below, if you could help.
1. CC(C)(C)OC(=O)N[C@@H](Cc1ccccc1)[C@H](O)[C@@H](O)[C@H](Cc1ccccc1)NC(=O)OC(C)(C)C
2. CC[C@H](C)[C@H](NC(=O)[C@H]1CCCN1C[C@H](O)[C@H](Cc1ccccc1)NC(=O)[C@H](CC(N)=O)NC(=O)[C@H](CC(C)C)NC(=O)[C@H](CO)NC(C)=O)C(=O)OC (Ac-SLN[X5]I-OMe)

[out]
1: 282; 2: 417
